Record set: Kd | CRBN-DDB1 (Homo sapiens, UniProt Q96SW2) | literature, multiple sources.
Reported Metric: Kd (µM)

Compound | Kd / µM
CCc1nc2cc(C(=O)NC)ccc2n1-c1ccc2[nH]c(=O)[nH]c2c1 | 0.036

I = CC(=O)N1CCC(NC(=O)c2cnc3[nH]c(=O)[nH]c3c2)CC1
II = O=C1CC[C@H](NC(=O)[C@@H]2CCNc3ccccc32)C(=O)N1
III = Nc1ccccc1Nc1ccc2[nH]c(=O)[nH]c2c1
IV = O=C(Nc1ccc(Nc2ccccc2)cc1)Nc1ccc2[nH]c(=O)[nH]c2c1
V = CC(=O)NCCc1nc2ccccc2n1-c1ccc2[nH]c(=O)[nH]c2c1
Lookup: Order the records by Kd, with each subsequent value no larger than the one before. Would you mind listing the labels in the order asked for?
Found: III, IV, V, II, I
(III: 0.054 µM, IV: 0.027 µM, V: 0.015 µM, II: 0.006 µM, I: 0.002 µM)

I = O=C1CCC(NC(=O)c2coc3ccccc23)C(=O)N1 (stereo not shown)
II = O=c1[nH]c2ccc(NS(=O)(=O)C3CCNCC3)cc2[nH]1
III = COC(=O)c1cccc2c1nc(C(C)C)n2-c1ccc2[nH]c(=O)[nH]c2c1
Lookup: Order the records by Kd, with each subsequent value no larger than the one before. Would you mind listing the labels in the order asked for?
Found: III, II, I
(III: 0.02 µM, II: 0.007 µM, I: 0.002 µM)

I = Cn1cncc1-c1cc(-c2nc3ccccc3n2-c2ccc3[nH]c(=O)[nH]c3c2)c2ccccc2n1
II = CCOC(=O)c1ccc(NC(=O)Nc2ccc3[nH]c(=O)[nH]c3c2)cc1
III = O=c1[nH]c2ccc(-c3ccc(-n4cccc4)cc3)cc2[nH]1
IV = CNC(=O)c1ccccc1NC(=O)c1ccc2[nH]c(=O)[nH]c2c1
V = O=c1[nH]c2ccc(-n3c(CO)nc4ccccc43)cc2[nH]1
Lookup: Please order the records by their reported Kd, lowest number first. Would you mind listing the labels in the order asked for?
Found: I, II, III, V, IV
(I: 0.006 µM, II: 0.009 µM, III: 0.018 µM, V: 0.029 µM, IV: 0.338 µM)

P = CC(=O)NCCC(=O)Nc1ccc2[nH]c(=O)[nH]c2c1
Q = O=C(Nc1ccc2[nH]c(=O)[nH]c2c1)C1CCc2ccccc21 (stereo not shown)
R = O=C1CC[C@H](NC(=O)N2CCCc3ccccc32)C(=O)N1
Lookup: Order the records by Kd, with each subsequent value no larger than the one before. Would you mind listing the labels in the order asked for?
Found: Q, P, R

I = CC(=O)N1CCC(NC(=O)c2ccc3[nH]c(=O)oc3c2)CC1
II = COC(=O)c1ccc2nc(C(C)C)n(-c3ccc4[nH]c(=O)[nH]c4c3)c2c1
Lookup: For the two items I and II , which reports the higher Kd value? I would appreciate it if you answered with the label of your choice.
Found: II
(II: 0.011 µM, I: 0.006 µM)
